Where do the numbers come from? From patent US20230220111A1.

Biological target: Human FXI protein (coagulation factor XI) (human, UniProt P03951 19-625)
Experiment: cell-based or functional assay
quantity-measured: aPTT1.5 (concentration prolonging aPTT by 50% relative to PBS), human blood (µg/mL)
Answers are plain numbers, in µg/mL.

I'd like to know its aPTT1.5 (concentration prolonging aPTT by 50% relative to PBS), human blood. The binder in question is antibody 3882 (antibody, human IgG4 S228P, kappa, V domains shown) VH: QVQLVQSGAEVKKPGSSVKVSCKASGGTFSDDYMHWVRQAPGQGLEWMGWIDPENGDTEYASKFQGRVTITADESTSTAYMELSSLRSEDTAVYYCLYGNFYYFDYWGQGTTVTVSS VL: EIVLTQSPATLSLSPGERATLSCSASSSINYMHWYQQKPGQAPKRWIYDTSKLASGVPARFSGSGSGTDFTLTISSLEPEDFAVYYCHQRSFSPLTFGQGTKLEIKR
0.63
